What Kd was measured for each of the following?

Assay CA III (Homo sapiens), sample CN1C(CSCC(F)(F)F)Nc2cc(Cl)c(S(N)(=O)=O)cc2S1(=O)=O (stereo not drawn) [Compound 7, polythiazide] , Kd read: > 200 µM

Assay CA III (Homo sapiens), sample NS(=O)(=O)c1cc2c(cc1C(F)(F)F)NC(Cc1ccccc1)NS2(=O)=O (stereo not drawn) [Compound 11, bendroflumethiazide] , Kd read: > 200 µM

Assay CA III (Homo sapiens), sample NS(=O)(=O)c1cc2c(cc1Cl)N=C(CSCc1ccccc1)NS2(=O)=O [Compound 8, benzthiazide] , Kd read: 4.5 µM

Assay CA III (Homo sapiens), sample Cc1ccccc1N1C(=O)c2cc(S(N)(=O)=O)c(Cl)cc2NC1C (stereo not drawn) , Kd read: > 200 µM

Assay CA III (Homo sapiens), sample CCC1NC(=O)c2cc(S(N)(=O)=O)c(Cl)cc2N1 (stereo not drawn) , Kd read: 180 µM

Assay CA III (Homo sapiens), sample NS(=O)(=O)c1cc(C(=O)O)c(NCc2ccco2)cc1Cl [Compound 15, Furosemide] , Kd read: > 200 µM
